Test system: SH-SY5Y nerve cells
Experiment: Neuroprotection in SH-SY5Y cell damage model induced by L-glutamic acid (MTT)
Type: cell-based
Conditions: drug 10^−5 moL/L, L-glutamic acid 160 mM, 24 h, effective rate %
REPORTED_ENDPOINT: Neuroprotective effective rate (recovery of viability relative to glutamate model) (%)

* CC(/C=C/C=C(\C)C(=O)O[C@@H]1OC(CO)[C@@H](O)C(O)C1O)=C\C=C\C=C(C)\C=C\C=C(/C)C(=O)O[C@@H]1OC(CO[C@@H]2OC(CO)[C@@H](O)C(O)C2O)[C@@H](O)C(O)C1O (stereo partly shown) | 0.00
* CC(/C=C/C=C(\C)C(=O)O[C@@H]1OC(CO)[C@@H](O)C(O)C1O)=C\C=C\C=C(C)\C=C\C=C(/C)C(=O)O[C@@H]1OC(CO)[C@@H](O)C(O)C1O (stereo partly drawn) [Compound 3, crocetin di-β-D-glucopyranoside] | 0.00
* CC(/C=C/C=C(\C)C(=O)O[C@@H]1O[C@H](CO[C@@H]2O[C@H](CO)[C@@H](O)[C@H](O)[C@H]2O)[C@@H](O)[C@H](O)[C@H]1O)=C\C=C\C=C(C)\C=C\C=C(/C)C(=O)O[C@@H]1[C@H](O)C[C@@](O)(C(=O)O)C[C@H]1OC(=O)/C=C/c1ccc(O)c(O)c1 | 40.03
* CC(/C=C/C=C(\C)C(=O)O)=C\C=C\C=C(C)\C=C\C=C(/C)C(=O)O[C@@H]1OC(CO)[C@@H](O)C(O)C1O (stereo partly drawn) [Compound 9, crocetin mono-β-D-glucopyranoside] | 0.00
